# Target Or Test System: Arabidopsis thaliana PIN8 (Arabidopsis thaliana, UniProt Q9LFP6)
# Sequence (Q9LFP6 whole entry): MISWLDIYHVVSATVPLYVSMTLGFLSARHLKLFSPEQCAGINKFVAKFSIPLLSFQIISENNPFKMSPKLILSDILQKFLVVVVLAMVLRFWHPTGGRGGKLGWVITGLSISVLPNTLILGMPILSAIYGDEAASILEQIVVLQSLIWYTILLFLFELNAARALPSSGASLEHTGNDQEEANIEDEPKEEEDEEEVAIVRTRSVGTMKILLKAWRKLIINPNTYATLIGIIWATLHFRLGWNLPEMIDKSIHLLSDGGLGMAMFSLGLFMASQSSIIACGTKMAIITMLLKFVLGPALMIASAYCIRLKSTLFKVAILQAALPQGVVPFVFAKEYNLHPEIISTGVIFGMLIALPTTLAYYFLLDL
# Procedure Summary: SSM electrophysiology peak current response, wild-type PIN8 proteoliposomes
# Format: biochemical
# Test Context: LPR10 vs LPR50; variation is consistent with transport
Value Kind: peak width of SSM current response at various lipid-to-protein ratios (LPR)

Compound	Recorded Measurement
O=C(O)Cc1c[nH]c2ccccc12 [IAA, indole-3-acetic acid]	vary with LPR
O=C(O)COc1ccc(Cl)cc1 [4-CPA, 4-chlorophenoxyacetic acid]	vary with LPR
O=C(O)COc1ccc(Cl)cc1Cl [2,4-D, 2,4-dichlorophenoxyacetic acid]	vary with LPR

====

Documented pEC50 across a set of compounds
# Target Or Test System: PIN8 S146A (Arabidopsis thaliana, UniProt Q9LFP6, S146A)
# Sequence (Q9LFP6 whole entry S146A): as the sequence (Q9LFP6 whole entry) above, with S146A counted along it
# Procedure Summary: SSM electrophysiology peak current response, PIN8 S146A proteoliposomes
Notebook: values listed as pEC50 are -log10 of the concentration (mol/L).

Observe how each entry below is paired with its result.
Compound	Target Or Test System	Recorded Measurement
O=C(O)COc1ccc(Cl)cc1 [4-CPA, 4-chlorophenoxyacetic acid]	PIN8 S146A (Arabidopsis thaliana, UniProt Q9LFP6, S146A)	3.43
O=C(O)Cc1c[nH]c2ccccc12 [IAA, indole-3-acetic acid]	PIN8 S146A (Arabidopsis thaliana, UniProt Q9LFP6, S146A)	3.30

As a next step, examine the compound that follows.
// returns reported pEC50 for input O=C(O)COc1ccc(Cl)cc1Cl [2,4-D, 2,4-dichlorophenoxyacetic acid] 3.79
